metric-name: melting point (°C)

> print(dat)
                                 mol.smiles    metric.name  value.observed
1  [O-][P+](c1ccccc1)(c1ccccc1)C1C2=C(OC3=C1CCc1ccccc13)c1ccccc1CC2  melting point             215
2  CCOC(OCC)c1cccc2c(Br)ccc([N+](=O)[O-])c12  melting point              95
3          O=C(Nc1nccs1)C(C(F)(F)F)C(F)(F)F  melting point             148

###

The class of a record is decided solely by its measured melting point; consult 1 = under 70 °C, 2 = from 70 °C up to 200 °C, 3 = 200 °C and over

> print(dat)
                                    molecule  class.name
 1  COC(=O)c1c(P(c2ccccc2)c2ccccc2)ccc2ccccc12           2
 2  Cc1c(N/N=C(/C#N)c2nc(-c3ccccc3)cs2)c(=O)n(-c2ccccc2)n1C           3
 3                    FC(F)(F)c1cc2ccccc2cn1           1
 4  O=S(=O)(O)c1ccc(-c2ccc(S(=O)(=O)O)cc2)cc1           2
 5  O=C1c2ccccc2CC2CCc3ccccc3N12 (centres undefined)           2
 6                 CN1CCC(CCCC2CCN(C)CC2)CC1           1
 7                            O=Cc1ccc(F)cc1           1
 8                   Cn1ccsc1=NC(=O)c1ccccc1           2
 9        O=S(=O)(O)CCN1CCN(CCS(=O)(=O)O)CC1           3
10  CC1CC(OC(=O)C(O)c2ccccc2)CC(C)(C)N1C (centres undefined)           2
11  CCOC(=O)c1nn(-c2ccc(C)cc2)c(C)c1C(=O)C1=NOC2C(=O)N(c3cc(Cl)ccc3Cl)C(=O)C12 (centres undefined)           3
12  COc1cccc(C=C(C(=O)O)C(=Cc2cccc(OC)c2)C(=O)O)c1           2
13  O=C(O)C1C(c2ccccc2)C(C(=O)O)C1c1ccccc1 (centres undefined)           3
14                   O=Cc1cccc(C(F)(F)F)c1Cl           1
15  COc1ccc(C(O)(c2ccccc2OC)c2ccc(OC)cc2OC)c(OC)c1           2
16  CNC1=C(c2cccc(C(F)(F)F)c2)C(=O)C(c2ccccc2)O1 (centres undefined)           2
17            O=C(O)C=Cc1c(F)c(F)c(F)c(F)c1F           2
18            O=C(O)c1c(Cl)cccc1[N+](=O)[O-]           2
19                                 C/C=C/C#N           1
20                  BrC(=NNc1ccccc1)c1ccccc1           2
21             COC(=O)Oc1c(F)c(F)c(F)c(F)c1F           1
22  CC1CCC2(C(=O)O)CCC3(C)C(=CCC4C5(C)CCC(O)C(C)(C)C5CCC43C)C2C1C (centres undefined)           3
23                                   C=COC=C           1
24                     CC(=Cc1ccccc1)CC(N)=O           2
25             CC(=O)O[C@@H](C(=O)O)c1ccccc1           2
26  CC(C)(C)C(=O)CC(=O)C(F)(F)C(F)(F)C(F)(F)F           1
27                         BrCC(CBr)(CBr)CBr           2
28                            CCN(CC)C(=O)Cl           1

###

Listed here: items and their measured melting point.
metric-name: melting point (°C)

> print(dat)
                                 mol.smiles  units.symbol  value.observed
1     CC1(C)OC(=O)C(=NNc2ccc(Cl)cc2)C(=O)O1            °C             156
2  Clc1c(Cl)c(Cl)c2c(Cl)c(Cl)c(Cl)c(Cl)c2c1Cl            °C             198
3                   N#Cc1ccc(OCc2ccccc2)cc1            °C              97

###

Parameter: melting point. Scope: all listed entries.
metric-name: melting point (°C)

> print(dat)
                                 mol.smiles  units.symbol  value.observed
1               CCCCCC(=O)Nc1ccc(Cl)c(Cl)c1            °C             106
2                        Cc1ccc2ccc(C)cc2c1            °C              97
3  C[C@]12CC[C@H]3[C@@H](CCC4=CC(=O)CC[C@@]43C)[C@@H]1CC[C@@H]2C(=O)O            °C             254

###

metric-name: melting point (°C)

> print(dat)
                                    compound    metric.name  units.symbol  value.observed
 1             N#Cc1c(F)ccc([N+](=O)[O-])c1F  melting point            °C            52.5
 2                     N#Cc1c(F)c(F)cc(F)c1F  melting point            °C              34
 3                           Sc1ccc2ccccc2c1  melting point            °C              81
 4               Cc1cnc2c(C(=O)O)c(Cl)ccc2c1  melting point            °C             253
 5  CCC1CC2CC3c4[nH]c5cc(OC)ccc5c4CCN(C2)C13 (centres undefined)  melting point            °C             214
 6                       CNc1ccc(C(=O)OC)cc1  melting point            °C              95
 7                             Nc1cc(Br)ccn1  melting point            °C             146
 8                        Cc1cc(Br)cc(Br)c1O  melting point            °C              58
 9  CC(=O)N1C(=O)Cc2cc3c(cc21)N(C(C)=O)C(=O)C3  melting point            °C             295
10  CC12CCC(C(=O)/C(=N\O)C1=O)C2(C)C (centres undefined)  melting point            °C             109
11  O=C(C1=NOC2C(=O)N(c3ccccc3Cl)C(=O)C12)c1cccs1 (centres undefined)  melting point            °C             180
12     CN1CCN(C2=Nc3ccccc3Oc3ccc(Cl)cc32)CC1  melting point            °C             110
13                CC(C)NNC(=O)COc1ccc(Cl)cc1  melting point            °C            93.5
14                            CCOC(=O)C(N)=S  melting point            °C              63
15  COC=C(C(=O)OC)c1ccccc1Oc1cc(Oc2ccccc2C#N)ncn1  melting point            °C             116
16  COc1cc(/C=N/N=C/c2ccc(OCc3ccccc3)c(OC)c2)ccc1OCc1ccccc1  melting point            °C             216
17  CCOC(=O)C(C)(C)C1=CCC2(C)C(CCC3C2CCC2(C)C(OCc4ccccc4)CCC32)C1 (centres undefined)  melting point            °C             138
18              O=C(CCBr)N1CCN(C(=O)CCBr)CC1  melting point            °C             106
19  CCC(COCCOc1c(I)cc(I)c(NC(C)=O)c1I)C(=O)O (centres undefined)  melting point            °C             130
20  CCC(C)OC(=O)C1=C2c3ncccc3ON2C(Cl)C(Cl)C1Cl (centres undefined)  melting point            °C              97
21  O=C(O)C(F)(F)C(F)(F)C(F)(F)C(F)(C(F)(F)F)C(F)(F)F  melting point            °C              13
22  CC(COc1ccccc1)N(CCCl)Cc1ccccc1 (centres undefined)  melting point            °C              39
23  CCC1(c2ccc(N)cc2)CCC(=O)NC1=O (centres undefined)  melting point            °C             150
24  O=C(CNc1cccc(NCC(=O)c2ccccc2)c1)c1ccccc1  melting point            °C             164
25  O=C(O)C(Br)C(Br)c1cccc(C(Br)C(Br)C(=O)O)c1 (centres undefined)  melting point            °C             225
26               O=P(O)(O)C(Cl)(Cl)P(=O)(O)O  melting point            °C             250
27  O=[N+]([O-])c1ccc(C2Nn3c(nnc3-c3ccccc3)S2)cc1 (centres undefined)  melting point            °C             225
28                             Nc1ccnc(Cl)c1  melting point            °C              93
29  O=[N+]([O-])CC(O)C(Cl)(Cl)Cl (centres undefined)  melting point            °C            45.5
